Tested on: SK-MEL-5 melanoma
assay notes: NCI-60 one-dose screen, 48 h (100 = growth as untreated, 0 = no growth, -100 = all killed)
stated conditions: 10 µM unless noted
This is part of a sample that, as a whole, favours compounds with a hit. Of some 83,000 tested, about 20% had one in any assay.
Each entry below carries its recorded growth.
property label: growth (%)

- molecule: "NS(=O)(=O)c1ccc(-n2cc(CN3CCCCC3)nn2)cc1"
  unit name: "%"
  quantitative readout: 99.6
- molecule: "CC(=O)N(C)C1CCc2c(sc(NC(=O)c3ccc(C(C)(C)C)cc3)c2C(N)=O)C1 (stereo not drawn)"
  unit name: "%"
  quantitative readout: 91.7
- molecule: "O=S(=O)(NCCCNc1nccc(-c2[nH]c(-c3ccccc3)nc2-c2ccc(Cl)c(O)c2)n1)c1cccc(F)c1"
  unit name: "%"
  quantitative readout: 23.5

====

System: NCI-H226 lung
assay notes: NCI-60 one-dose screen, 48 h (100 = growth as untreated, 0 = no growth, -100 = all killed)
stated conditions: 10 µM unless noted
Method: Growth inhibition of the NCI-H226 human Non-Small Cell Lung tumor cell line is measured as a screen for anti-cancer activity. Cells are grown in 96 well plates and exposed to the test compound for 48 hours. Compounds are tested at a single concentration, which is 10^-5 M for most compounds. The reported endpoint is percent growth (GI% or GIPRCNT), where numbers from 0 - 100% represent growth inhibition, and numbers from -100% - 0 represent cell death. […]
This is part of a sample that, as a whole, favours compounds with a hit. Of some 83,000 tested, about 20% had one in any assay.

- molecule: "CC(C)C[C@@H]1N[C@@]2(C(=O)Nc3ccccc32)[C@@H](c2ccc(F)cc2)[C@@H]1C(=O)c1ccc(O)cc1"
  unit name: "%"
  growth: 92.7
- molecule: "O=S(=O)(NCCCNc1nccc(-n2cnc3ccccc32)n1)c1ccc(C(F)(F)F)cc1"
  unit name: "%"
  growth: 77.8
- molecule: "COc1cc(Cn2cc3c(c2)-c2onc(CN4CCCC4)c2CC3)cc(OC)c1OC"
  unit name: "%"
  growth: 88.4
- molecule: "COc1ccc(/C=N/NC2=NC3C(S2)N(C)C(=O)N3C)cc1 (centres undefined)"
  unit name: "%"
  growth: 57.9
- molecule: "CN(C)CCCOc1ccc2c(c1)CN(C(=O)c1cc(C(=O)N3Cc4cccc(F)c4C3)ccc1O)C2"
  unit name: "%"
  growth: 97.2
- molecule: "Cc1cccc2c3c(sc12)C(c1ccc(F)cc1)C(C#N)=C(/N=C/c1ccc(Cl)cc1)O3 (centres undefined)"
  unit name: "%"
  growth: 29.9
- molecule: "Cc1noc(C)c1CSc1nc2ccccc2n1-c1ccccc1"
  unit name: "%"
  growth: 95.6
- molecule: "O=C(NNc1nc2cc(F)ccc2n2c(CO)ccc12)c1cnccn1"
  unit name: "%"
  growth: 16.3
- molecule: "Nc1nc(N)c2c(n1)NC(c1ccc(Cl)cc1)CC(c1ccc(Nc3nc(NCCO)nc(N4CCOCC4)n3)cc1)=N2 (centres undefined)"
  unit name: "%"
  growth: 82

====

Test system: RPMI-8226 leukemia
assay notes: NCI-60 one-dose screen, 48 h
stated conditions: 10 µM unless noted
About 83,000 compounds went through this panel and 20% of them were active in at least one assay; those are over-represented in the sample as a whole. Calls of active or inactive are those of the source. The calls were made as follows: active = growth percent below 10; inactive = the rest.
Outcomes: active, inactive

- compound: "CCN1CCN(Cc2ccc(C(=O)Nc3ccc(C)c(Oc4ccc(-c5[nH]nc6ncnc(N)c56)cc4)c3)cc2C(F)(F)F)CC1"
  measured on: "RPMI-8226 leukemia"
  discrete label: "inactive"
- compound: "Cn1cc(-c2nnc(N)nc2-c2c[nH]c3ccc(F)cc23)c2cc(F)ccc21"
  measured on: "RPMI-8226 leukemia"
  discrete label: "inactive"
- compound: "CS(=O)(=O)Nc1cc(-c2ccc3ncc(C#N)c(NCc4cccc(F)c4)c3c2)cnc1Cl"
  measured on: "RPMI-8226 leukemia"
  discrete label: "active"
- compound: "C#CCNC1CCC(c2csc(C#C)n2)=C1C (stereo unspecified)"
  measured on: "RPMI-8226 leukemia"
  discrete label: "active"
- compound: "Cc1cc(C)n(C(=O)c2sc(=S)n(-c3ccccc3)c2N=Nc2c(N)n[nH]c2N)n1"
  measured on: "RPMI-8226 leukemia"
  discrete label: "inactive"
- compound: "Cc1ccc(NC(=O)c2ccc(CN3CCOCC3)c(C(F)(F)F)c2)cc1Oc1ccc(-c2[nH]nc3ncnc(N)c23)cc1"
  measured on: "RPMI-8226 leukemia"
  discrete label: "inactive"
- compound: "CCN(CC)CCn1c2ccc(O)cc2c2sc3cc(OC)ccc3c(=O)c21"
  measured on: "RPMI-8226 leukemia"
  discrete label: "active"
- compound: "CS(=O)(=O)Nc1cc(-c2ccc3ncc(C#N)c(NCc4ccccc4)c3c2)cnc1Cl"
  measured on: "RPMI-8226 leukemia"
  discrete label: "active"
- compound: "Nn1c(N/N=C/c2nc3ccccc3s2)n[nH]c1=S"
  measured on: "RPMI-8226 leukemia"
  discrete label: "inactive"
- compound: "Cc1cccc2c3c(sc12)C(c1ccc(Cl)cc1)c1c(nc(CC(=O)Nc2ccccc2)[nH]c1=O)O3 (stereo unspecified)"
  measured on: "RPMI-8226 leukemia"
  discrete label: "inactive"
- compound: "CCc1cccc2c3c(sc12)C(c1ccc(OC)cc1)C(C#N)=C(/N=C/c1ccc(Cl)cc1)O3 (stereo unspecified)"
  measured on: "RPMI-8226 leukemia"
  discrete label: "inactive"
- compound: "O=C(Nc1nc2ccc([N+](=O)[O-])cc2s1)Nc1ccccc1Br"
  measured on: "RPMI-8226 leukemia"
  discrete label: "active"
- compound: "CS(=O)(=O)Nc1cc(-c2ccc3ncc(C#N)c(NCc4ccccc4O)c3c2)cnc1Cl"
  measured on: "RPMI-8226 leukemia"
  discrete label: "active"
- compound: "N#Cc1cccc(/C(N)=N/C(N)=N/c2nc3ccccc3s2)c1"
  measured on: "RPMI-8226 leukemia"
  discrete label: "active"
- compound: "Cn1ccnc1C(=O)/C=C/c1ccc(NC(=O)c2ccc(F)cc2)cc1"
  measured on: "RPMI-8226 leukemia"
  discrete label: "inactive"
- compound: "Nc1nc(-c2cccc([N+](=O)[O-])c2)c(N=Nc2ccc(Br)cc2)s1"
  measured on: "RPMI-8226 leukemia"
  discrete label: "inactive"

Data origin: PubChem BioAssay (NCI)
